# Test system: DCAMKL1;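 note: KINOMEscan kinase panel screen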
# Construct: gene DCLK1
# TEST_CONDITIONS: concentration: 1 μM,replicates: in singlicate; n = 1
I'd be grateful if you could share measured %Inh for these entries.
Write the value in % as a bare number.

Field request: %Inh | item: CCN1CCN(CCCC(=O)Nc2n[nH]c3nc(-c4ccc(O)cc4)c(Br)cc23)CC1
0

Field request: %Inh | item: Cc1nnc(-c2ccc3occ(-c4ccc(S(C)=O)cc4)c3n2)o1 (stereo not drawn)
0

Field request: %Inh | item: Nc1nccc(-c2ccc3c(N)n[nH]c3c2)n1
12

Field request: %Inh | item: O=C(Nc1cccc(Oc2ccc3nccn3n2)c1)Nc1cccc(C(F)(F)F)c1
0

Field request: %Inh | item: CCOC(=O)N1CCC(n2cnc(-c3ccc(F)cc3)c2-c2ccnc(N)n2)CC1
22

Field request: %Inh | item: Cc1ccc(Nc2ccnc(Nc3ccc4c(c3)CS(=O)(=O)C4)n2)cc1O.Cl
25

Field request: %Inh | item: COc1cc2ncn(-c3cc(OCC4CCCCC4)c(C(N)=O)s3)c2cc1OC
2

Field request: %Inh | item: CCn1c(-c2nonc2N)nc2cncc(CNC3CCNCC3)c21.Cl
7

Field request: %Inh | item: CS(=O)(=O)Nc1ccc(-c2ccnc3[nH]ccc23)cc1
6
